Assay: Pharmacokinetic assay in Balb/c mice (plasma and brain tissue)
Type: in vivo
Settings: mouse, po; brain tissue, 5 mg/kg p.o., male Balb/c mice; read-out: Half-life t1/2 (converted)
Threshold check on half-life: at or above 2 h gives label 1, strictly below gives label 0.

Sample answers from the record:
Structure notation	Assigned category
CC[C@@H]1C[C@H](C(=O)Cn2nccn2)[C@@]2(C)CC[C@H]3[C@@H](CC[C@@H]4C[C@](C)(O)CC[C@@H]43)[C@H]12	label 0
C[C@@H]1C[C@H](C(=O)Cn2cc(C#N)c(Cl)n2)[C@@]2(C)CC[C@H]3[C@@H](CC[C@@H]4C[C@](C)(O)CC[C@@H]43)[C@H]12	label 0
C[C@@H]1C[C@H](C(=O)Cn2cc(C(F)(F)F)cn2)[C@@]2(C)CC[C@H]3[C@@H](CC[C@@H]4C[C@](C)(O)CC[C@@H]43)[C@H]12	label 1
Cc1nnn(CC(=O)[C@H]2C[C@@H](C3CC3)[C@H]3[C@@H]4CC[C@@H]5C[C@](C)(O)CC[C@@H]5[C@H]4CC[C@@]32C)n1	label 1

Turning now to a further record.
In plain terms: is recorded half-life at least 2 h for C[C@@]1(O)CC[C@H]2[C@H](CC[C@@H]3[C@@H]2CC[C@@]2(C)[C@H]3[C@H](C3CC3)C[C@@H]2C(=O)Cn2ccnn2)C1 ?
label 1

---

Measured AUC(0-t) by item
Assay: Pharmacokinetic assay in Balb/c mice (plasma and brain tissue)
Assay type: in vivo
Conditions: mouse, po; plasma, 5 mg/kg p.o., male Balb/c mice; read-out: Area under curve AUC0-t
Just so you know, I need the unit written after the number.

Respond only with AUC(0-t) recorded for C[C@@]1(O)CC[C@H]2[C@H](CC[C@@H]3[C@@H]2CC[C@@]2(C)[C@H]3[C@@H]3C[C@@H]3[C@@H]2C(=O)Cn2cc(C#N)cn2)C1 [Example 2]
1360 ng·h/mL

# return recorded AUC(0-t) for input C[C@@]1(O)CC[C@H]2[C@H](CC[C@@H]3[C@@H]2CC[C@@]2(C)[C@H]3[C@@H]3C[C@@H]3[C@@H]2C(=O)Cn2cc(C(F)(F)F)cn2)C1 [Example 5]
1240 ng·h/mL

Answer with the recorded AUC(0-t) for the compound listed here: C[C@@]1(O)CC[C@H]2[C@H](CC[C@@H]3[C@@H]2CC[C@@]2(C)[C@H]3[C@@H]3C[C@@H]3[C@@H]2C(=O)Cn2ccc(C#N)n2)C1 [Example 3]
570 ng·h/mL

---

Assay: Pharmacokinetic assay in Balb/c mice (plasma and brain tissue)
Format: in vivo
Settings: mouse, po; brain tissue, 5 mg/kg p.o., male Balb/c mice; read-out: Half-life t1/2 (converted)
Some molecules, each annotated with its measured half-life.
Express your answer in h, writing the number without its unit.

Past entries and their recorded results:
Molecule	Readout	Units text	Measurement
C[C@@]1(O)CC[C@H]2[C@H](CC[C@@H]3[C@@H]2CC[C@@]2(C)[C@H]3[C@H](C3CC3)C[C@@H]2C(=O)Cn2nc(C#N)cc2C#N)C1 [Example 143]	half-life	h	3.95
CC[C@@H]1C[C@H](C(=O)Cn2ccnn2)[C@@]2(C)CC[C@H]3[C@@H](CC[C@@H]4C[C@](C)(O)CC[C@@H]43)[C@H]12 [Example 140]	half-life	h	1.21

Input C[C@@]1(O)CC[C@H]2[C@H](CC[C@@H]3[C@@H]2CC[C@@]2(C)[C@H]3[C@H](C3CC3)C[C@@H]2C(=O)Cn2nccn2)C1 [Example 73] , output reported half-life.
1.31

// Input: C[C@@]1(O)CC[C@H]2[C@H](CC[C@@H]3[C@@H]2CC[C@@]2(C)[C@H]3[C@@H]3C[C@@H]3[C@@H]2C(=O)Cn2cc(C#N)cn2)C1 [Example 2] . Output its half-life only.
2.84

Return reported half-life. Input molecule: CC[C@@H]1C[C@H](C(=O)Cn2cc(C#N)cn2)[C@@]2(C)CC[C@H]3[C@@H](CC[C@@H]4C[C@](C)(O)CC[C@@H]43)[C@H]12 [Example 81]
5.59

---

Experiment: Pharmacokinetic assay in Balb/c mice (plasma and brain tissue)
Format: in vivo
Details: mouse, po; plasma, 5 mg/kg p.o., male Balb/c mice; read-out: Area under curve AUC0-∞
AUC(0-inf) for assorted compounds
Response body: numeric value in ng·h/mL, unit text excluded.

Compound	AUC(0-inf) / ng·h/mL
C[C@@H]1C[C@H](C(=O)Cn2cc(C#N)cn2)[C@@]2(C)CC[C@H]3[C@@H](CC[C@@H]4C[C@](C)(O)CC[C@@H]43)[C@H]12 [Example 13]	5070
C[C@@]1(O)CC[C@H]2[C@H](CC[C@@H]3[C@@H]2CC[C@@]2(C)[C@H]3[C@@H]3C[C@@H]3[C@@H]2C(=O)COc2cnc(C(F)(F)F)nc2)C1 [Example 130]	1560
C[C@@]1(O)CC[C@H]2[C@H](CC[C@@H]3[C@@H]2CC[C@@]2(C)[C@H]3[C@H](C3CC3)C[C@@H]2C(=O)Cn2nccn2)C1 [Example 73]	2480
CC[C@@H]1C[C@H](C(=O)Cn2cc(C#N)cn2)[C@@]2(C)CC[C@H]3[C@@H](CC[C@@H]4C[C@](C)(O)CC[C@@H]43)[C@H]12 [Example 81]	5920

API: the following record is the query input.
Quick one: give measured AUC(0-inf) for CC[C@@H]1C[C@H](C(=O)Cn2ccnn2)[C@@]2(C)CC[C@H]3[C@@H](CC[C@@H]4C[C@](C)(O)CC[C@@H]43)[C@H]12 [Example 140]
6110

---

Experiment: Pharmacokinetic assay in Balb/c mice (plasma and brain tissue)
Type: in vivo
Details: mouse, po; brain tissue, 5 mg/kg p.o., male Balb/c mice; read-out: Area under curve AUC0-∞
Readout: log10 AUC(0-inf) (log10 of the value in µg·h/mL)
Answers are given as log10 of AUC(0-inf) in µg·h/mL.

Compound	log10 AUC(0-inf)
C[C@@]1(O)CC[C@H]2[C@H](CC[C@@H]3[C@@H]2CC[C@@]2(C)[C@H]3[C@H](C3CC3)C[C@@H]2C(=O)Cn2nc(C#N)cc2C#N)C1 [Example 143]	0.96

Next:
Quick one: give measured log10 AUC(0-inf) for CC[C@@H]1C[C@H](C(=O)Cn2cc(C#N)cn2)[C@@]2(C)CC[C@H]3[C@@H](CC[C@@H]4C[C@](C)(O)CC[C@@H]43)[C@H]12 [Example 81]
0.35

---

Experiment: Pharmacokinetic assay in Balb/c mice (plasma and brain tissue)
Type: in vivo
Settings: mouse, po; brain tissue, 5 mg/kg p.o., male Balb/c mice; read-out: Plasma concentration Cmax
Let's look at some compounds and their measured Cmax.
A number alone suffices; assume ng/mL.

Study these solved cases before continuing.
Structure notation	Cmax (ng/mL)
C[C@@]1(O)CC[C@H]2[C@H](CC[C@@H]3[C@@H]2CC[C@@]2(C)[C@H]3[C@@H]3C[C@@H]3[C@@H]2C(=O)Cn2ncnn2)C1	605
CC[C@@H]1C[C@H](C(=O)Cn2cc(C#N)cn2)[C@@]2(C)CC[C@H]3[C@@H](CC[C@@H]4C[C@](C)(O)CC[C@@H]43)[C@H]12	296
C[C@@]1(O)CC[C@H]2[C@H](CC[C@@H]3[C@@H]2CC[C@@]2(C)[C@H]3[C@@H]3C[C@@H]3[C@@H]2C(=O)Cn2cc(C(F)(F)F)cn2)C1	1410
C[C@@H]1C[C@H](C(=O)Cn2ncnn2)[C@@]2(C)CC[C@H]3[C@@H](CC[C@@H]4C[C@](C)(O)CC[C@@H]43)[C@H]12	486
CC[C@@H]1C[C@H](C(=O)Cn2ccc(C(F)(F)F)n2)[C@@]2(C)CC[C@H]3[C@@H](CC[C@@H]4C[C@](C)(O)CC[C@@H]43)[C@H]12	314

Consider the compound C[C@@]1(O)CC[C@H]2[C@H](CC[C@@H]3[C@@H]2CC[C@@]2(C)[C@H]3[C@@H]3C[C@@H]3[C@@H]2C(=O)Cn2cc([N+](=O)[O-])cn2)C1 and give its recorded Cmax.
626

Identify the reported Cmax for the following entry. C[C@@H]1C[C@H](C(=O)Cn2cc(C#N)cn2)[C@@]2(C)CC[C@H]3[C@@H](CC[C@@H]4C[C@](C)(O)CC[C@@H]43)[C@H]12
1060

Indicate the recorded Cmax value for this compound: C[C@@]1(O)CC[C@H]2[C@H](CC[C@@H]3[C@@H]2CC[C@@]2(C)[C@H]3[C@H](C3CC3)C[C@@H]2C(=O)Cn2ncnn2)C1
1970

Provide measured Cmax value, entry: C[C@@]1(O)CC[C@H]2[C@H](CC[C@@H]3[C@@H]2CC[C@@]2(C)[C@H]3[C@@H]3C[C@@H]3[C@@H]2C(=O)Cn2ccc(C#N)n2)C1
690

Provide measured Cmax value, entry: C[C@@H]1C[C@H](C(=O)Cn2cc(C(F)(F)F)cn2)[C@@]2(C)CC[C@H]3[C@@H](CC[C@@H]4C[C@](C)(O)CC[C@@H]43)[C@H]12
678

Query Cmax for C[C@@H]1C[C@H](C(=O)Cn2nccn2)[C@@]2(C)CC[C@H]3[C@@H](CC[C@@H]4C[C@](C)(O)CC[C@@H]43)[C@H]12
711
